# assayName: folding enthalpy; higher = less favourable; fluorescence melt of hairpins on a sequencing array, two-state fit
# conditionInfo: sodium 0.088 M
Give folding enthalpy for every item shown.
State the answer as a number, implicitly in kcal/mol.

## Input Supply measured folding enthalpy of GCTGACGAAAGTCGAGC ((((((....))).))) in your reply.
## Output -37.7

## Input Supply measured folding enthalpy of GCGTTTGGAAACGAACGC (((((.(....).))))) in your reply.
## Output -61.3

## Input Supply measured folding enthalpy of GGATTCGGAAACGGATCC ((((.((....)).)))) in your reply.
## Output -39.2

## Input Supply measured folding enthalpy of GATCCGCGAAAGCGCATC (((.(((....))).))) in your reply.
## Output -14.1

## Input Supply measured folding enthalpy of GGGTCCGAAAGGATGCCC ((((((....)))..))) in your reply.
## Output -24.3

## Input Supply measured folding enthalpy of GGATGCGAAAGCAGGTCC ((((((....)))..))) in your reply.
## Output -11.8

## Input Supply measured folding enthalpy of GCTCAGGGAAACCTAAGC (((.(((....))).))) in your reply.
## Output -20.6

## Input Supply measured folding enthalpy of GCACTGCGAAAGCATCGC ((..(((....)))..)) in your reply.
## Output -12.8

## Input Supply measured folding enthalpy of GGCCACCGAAAGGTAGCC (((.(((....))).))) in your reply.
## Output -38.3

## Input Supply measured folding enthalpy of GTTTTGGGAAACTGAAAC ((((..(....)..)))) in your reply.
## Output -12.2

## Input Supply measured folding enthalpy of GTTCTCGAAAGAGACAAC ((((((....)))..))) in your reply.
## Output -11.6

## Input Supply measured folding enthalpy of GCGGCGCGAAAGCTGCGC (((..((....))..))) in your reply.
## Output -26.1

## Input Supply measured folding enthalpy of GTTGCCCGAAAGGGAAC (((.(((....)))))) in your reply.
## Output -15.6

## Input Supply measured folding enthalpy of GATCACTCGCGTGATC ((((((....)))))) in your reply.
## Output -44.5

## Input Supply measured folding enthalpy of GAATACGAAAGTATCTTC ((((((....)))..))) in your reply.
## Output -28.1

## Input Supply measured folding enthalpy of GATCAATATTTTGATC ((((((....)))))) in your reply.
## Output -35.6

## Input Supply measured folding enthalpy of GCGTACGTACGC ((((....)))) in your reply.
## Output -29.9

## Input Supply measured folding enthalpy of GCCTTAGGAAACTAAGAC (.(((((....))))).) in your reply.
## Output -13.8

## Input Supply measured folding enthalpy of GATCGTGCGAAAGCAATC (((..(((....)))))) in your reply.
## Output -6.96

## Input Supply measured folding enthalpy of GGTAGGCGAAAGCCACC (((.(((....)))))) in your reply.
## Output -16

## Input Supply measured folding enthalpy of GCAGCCGAAAGGCCATGC ((((((....)))..))) in your reply.
## Output -13.9

## Input Supply measured folding enthalpy of GCCCTGCGAAAGCCAGGC (((..((....))..))) in your reply.
## Output -15.7

## Input Supply measured folding enthalpy of CGTCGCGGAAACGCCACG (((.(((....))).))) in your reply.
## Output -33.1

## Input Supply measured folding enthalpy of GTAAGTGGAAACACCTAC (((.(((....))).))) in your reply.
## Output -16.8

## Input Supply measured folding enthalpy of GATCTATACTTAGATC ((((((....)))))) in your reply.
## Output -46.9
